Source: the supplement of paper PMC10307832

# Tested on: NCI-H3122
# run_description: relative viability (nuclei count vs DMSO), 5 days (fraction); higher = more cells survive
# condition_description: first compound 0.05 µM
For each record, check the reported relative viability: if it is below 0.5 write 1.0, else write 0.0.

*Q* For this compound, is relative viability lower than 0.5? Nc1ccn([C@@H]2O[C@H](CO)[C@@H](O)[C@@H]2O)c(=O)n1 [Cytarabine] + CC1(C)CCC(c2ccc(Cl)cc2)=C(CN2CCN(c3ccc(C(=O)NS(=O)(=O)c4ccc(N[C@H](CCN5CCOCC5)CSc5ccccc5)c(S(=O)(=O)C(F)(F)F)c4)cc3)CC2)C1 [Navitoclax] (partner 0.5 µM)
*A* 0.0

*Q* For this compound, is relative viability lower than 0.5? COc1cc2nccc(Oc3ccc(NC(=O)Nc4cc(C)on4)c(Cl)c3)c2cc1OC [Tivozanib] + N=C(N)NC(=N)NCCc1ccccc1 [Phenformin] (partner 250 µM)
*A* 1.0

*Q* For this compound, is relative viability lower than 0.5? Nc1ccn([C@@H]2O[C@H](CO)[C@@H](O)[C@@H]2O)c(=O)n1 [Cytarabine] + Nc1ncn([C@H]2C[C@H](O)[C@@H](CO)O2)c(=O)n1 [Decitabine] (partner 2 µM)
*A* 1.0

*Q* For this compound, is relative viability lower than 0.5? COc1cc2nccc(Oc3ccc(NC(=O)Nc4cc(C)on4)c(Cl)c3)c2cc1OC [Tivozanib] + Cc1cc(Nc2cc(N3CCN(C)CC3)nc(Sc3ccc(NC(=O)C4CC4)cc3)n2)n[nH]1 [Tozasertib] (partner 0.1 µM)
*A* 1.0

*Q* For this compound, is relative viability lower than 0.5? COc1cc2nccc(Oc3ccc(NC(=O)Nc4cc(C)on4)c(Cl)c3)c2cc1OC [Tivozanib] + Nc1ncn([C@H]2C[C@H](O)[C@@H](CO)O2)c(=O)n1 [Decitabine] (partner 2 µM)
*A* 1.0

---

Exercise: for every item that follows, state its recorded relative viability.
# Test system: NCI-H23
# run_description: relative viability (nuclei count vs DMSO), 5 days (fraction); higher = more cells survive
# condition_description: first compound 0.000632 µM
Form field (numeric): enter value without unit.

*Q* Recall the recorded relative viability for CC(=O)O[C@@]12CO[C@@H]1C[C@H](O)[C@@]1(C)C(=O)[C@H](O)C3=C(C)[C@@H](OC(=O)[C@H](O)[C@@H](NC(=O)OC(C)(C)C)c4ccccc4)C[C@@](O)([C@@H](OC(=O)c4ccccc4)[C@H]21)C3(C)C [Docetaxel] + CS(=O)(=O)CCNCc1ccc(-c2ccc3ncnc(Nc4ccc(OCc5cccc(F)c5)c(Cl)c4)c3c2)o1 [Lapatinib] (partner 2 µM) with NCI-H23 and state it.
*A* 0.725

*Q* Recall the recorded relative viability for CC(=O)O[C@@]12CO[C@@H]1C[C@H](O)[C@@]1(C)C(=O)[C@H](O)C3=C(C)[C@@H](OC(=O)[C@H](O)[C@@H](NC(=O)OC(C)(C)C)c4ccccc4)C[C@@](O)([C@@H](OC(=O)c4ccccc4)[C@H]21)C3(C)C [Docetaxel] + C[C@@H](Oc1cc(-c2cnn(C3CCNCC3)c2)cnc1N)c1c(Cl)ccc(F)c1Cl [Crizotinib] (partner 1 µM) with NCI-H23 and state it.
*A* 0.412

---

# Tested on: NCI-H647
# run_description: relative viability (nuclei count vs DMSO), 5 days (fraction); higher = more cells survive
# condition_description: first compound 0.0002 µM
value_kind: relative viability
Form field (numeric): enter value without unit.

*Q* Name the recorded relative viability for CC(=O)O[C@@]12CO[C@@H]1C[C@H](O)[C@@]1(C)C(=O)[C@H](O)C3=C(C)[C@@H](OC(=O)[C@H](O)[C@@H](NC(=O)OC(C)(C)C)c4ccccc4)C[C@@](O)([C@@H](OC(=O)c4ccccc4)[C@H]21)C3(C)C [Docetaxel] + Cc1nc(NC(=O)N2CCC[C@H]2C(N)=O)sc1-c1ccnc(C(C)(C)C(F)(F)F)c1 [Alpelisib] (partner 2 µM) .
*A* 0.903

*Q* Name the recorded relative viability for CC(=O)O[C@@]12CO[C@@H]1C[C@H](O)[C@@]1(C)C(=O)[C@H](O)C3=C(C)[C@@H](OC(=O)[C@H](O)[C@@H](NC(=O)OC(C)(C)C)c4ccccc4)C[C@@](O)([C@@H](OC(=O)c4ccccc4)[C@H]21)C3(C)C [Docetaxel] + C[C@@H](Oc1cc(-c2cnn(C3CCNCC3)c2)cnc1N)c1c(Cl)ccc(F)c1Cl [Crizotinib] (partner 1 µM) .
*A* 0.769
